- Test system: Schistosoma japonicum
- experiment_description: Antischistosomal activity against adult Schistosoma japonicum assessed as worm survival at 50 uM after 72 hrs relative to control
- Assay type: functional
quantity: survival at 50 µM (%)
Give the value, in units of %, as a plain number.

C[C@H]1[C@@H](OC(=O)CCC(=O)Nc2ccc3c(c2)C2CN(C(=O)C4CCCCC4)CC(=O)N2CC3)O[C@@H]2O[C@@]3(C)CC[C@H]4[C@H](C)CC[C@@H]1[C@@]24OO3 (stereo partly drawn); 0
C[C@H]1[C@@H](CC(=O)Oc2ccc3c(c2)C2CN(C(=O)C4CCCCC4)CC(=O)N2CC3)O[C@@H]2O[C@@]3(C)CC[C@H]4[C@H](C)CC[C@@H]1[C@@]24OO3 (stereo partly drawn); 0

Turning now to a further record.
Form field: survival at 50 µM recorded for O=C(Oc1ccc2c(c1)C1CN(C(=O)C3CCCCC3)CC(=O)N1CC2)C1CCC2(CC1)OOC1(O2)C2CC3CC(C2)CC1C3 (stereo not drawn) with Schistosoma japonicum (enter value)
40

* * *

- Tested on: Schistosoma japonicum
- experiment_description: Antischistosomal activity against juvenile Schistosoma japonicum assessed as worm survival at 50 uM after 24 hrs relative to control
- Type: functional
survival at 50 µM values by entry
Give the value, in units of %, as a plain number.

Consider the worked cases shown below.
C[C@H]1[C@@H](OC(=O)CCC(=O)Oc2ccc3c(c2)C2CN(C(=O)C4CCCCC4)CC(=O)N2CC3)O[C@@H]2O[C@@]3(C)CC[C@H]4[C@H](C)CC[C@@H]1[C@@]24OO3 (stereo partly specified); 0
C[C@H]1[C@@H](CC(=O)Oc2ccc3c(c2)C2CN(C(=O)C4CCCCC4)CC(=O)N2CC3)O[C@@H]2O[C@@]3(C)CC[C@H]4[C@H](C)CC[C@@H]1[C@@]24OO3 (stereo partly specified); 14.3
O=C(Nc1ccc2c(c1)C1CN(C(=O)C3CCCCC3)CC(=O)N1CC2)C1CCC2(CC1)OOC1(CCCCC1)OO2 (stereo unspecified); 33.3

Given the entry C[C@H]1[C@@H](OC(=O)CCC(=O)Nc2ccc3c(c2)C2CN(C(=O)C4CCCCC4)CC(=O)N2CC3)O[C@@H]2O[C@@]3(C)CC[C@H]4[C@H](C)CC[C@@H]1[C@@]24OO3 (stereo partly specified) , report its measured survival at 50 µM.
0

Given the entry O=C(C1CCCCC1)N1CC(=O)N2CCc3ccc(O)cc3C2C1 (stereo unspecified) , report its measured survival at 50 µM.
0

Given the entry O=C(Oc1ccc2c(c1)C1CN(C(=O)C3CCCCC3)CC(=O)N1CC2)C1CCC2(CC1)OOC1(CCCCC1)OO2 (stereo unspecified) , report its measured survival at 50 µM.
0

* * *

- Test system: Schistosoma japonicum
- experiment_description: Antischistosomal activity against adult Schistosoma japonicum assessed as worm survival at 50 uM after 72 hrs relative to control
- Format: functional
survival at 50 µM values by entry
Please answer using a numeric value trailed by its unit.

Consider the worked cases shown below.
O=C(C1CCCCC1)N1CC(=O)N2CCc3ccccc3C2C1 (configuration not stated); 36.3%
O=C(C1CCCCC1)N1CC(=O)N2CCc3ccc(O)cc3C2C1 (configuration not stated); 0%
C[C@H]1[C@@H](CC(=O)Nc2ccc3c(c2)C2CN(C(=O)C4CCCCC4)CC(=O)N2CC3)O[C@@H]2O[C@@]3(C)CC[C@H]4[C@H](C)CC[C@@H]1[C@@]24OO3 (some centres not stated); 100%

Turning now to a further record.
Given the entry C[C@H]1[C@@H](OC(=O)CCC(=O)Oc2ccc3c(c2)C2CN(C(=O)C4CCCCC4)CC(=O)N2CC3)O[C@@H]2O[C@@]3(C)CC[C@H]4[C@H](C)CC[C@@H]1[C@@]24OO3 (some centres not stated) , report its measured survival at 50 µM.
0%

* * *

- Tested on: Schistosoma japonicum
- experiment_description: Antischistosomal activity against adult Schistosoma japonicum assessed as worm survival at 50 uM after 72 hrs relative to control
- Assay type: functional
quantity: survival at 50 µM

Consider the worked cases shown below.
O=C(Nc1ccc2c(c1)C1CN(C(=O)C3CCCCC3)CC(=O)N1CC2)C1CCC2(CC1)OOC1(CCCCC1)OO2 (stereo not drawn); 0%
O=C(Oc1ccc2c(c1)C1CN(C(=O)C3CCCCC3)CC(=O)N1CC2)C1CCC2(CC1)OOC1(CCCCC1)OO2 (stereo not drawn); 80%

Given the entry O=C(Nc1ccc2c(c1)C1CN(C(=O)C3CCCCC3)CC(=O)N1CC2)C1CCC2(CC1)OOC1(O2)C2CC3CC(C2)CC1C3 (stereo not drawn) , report its measured survival at 50 µM.
100%

Cited source: ChEMBL document CHEMBL1949576
